Data origin: ChEMBL document CHEMBL3526111

- Study target: CYP2C9 (Homo sapiens, UniProt P11712)
- Sequence (P11712 whole entry): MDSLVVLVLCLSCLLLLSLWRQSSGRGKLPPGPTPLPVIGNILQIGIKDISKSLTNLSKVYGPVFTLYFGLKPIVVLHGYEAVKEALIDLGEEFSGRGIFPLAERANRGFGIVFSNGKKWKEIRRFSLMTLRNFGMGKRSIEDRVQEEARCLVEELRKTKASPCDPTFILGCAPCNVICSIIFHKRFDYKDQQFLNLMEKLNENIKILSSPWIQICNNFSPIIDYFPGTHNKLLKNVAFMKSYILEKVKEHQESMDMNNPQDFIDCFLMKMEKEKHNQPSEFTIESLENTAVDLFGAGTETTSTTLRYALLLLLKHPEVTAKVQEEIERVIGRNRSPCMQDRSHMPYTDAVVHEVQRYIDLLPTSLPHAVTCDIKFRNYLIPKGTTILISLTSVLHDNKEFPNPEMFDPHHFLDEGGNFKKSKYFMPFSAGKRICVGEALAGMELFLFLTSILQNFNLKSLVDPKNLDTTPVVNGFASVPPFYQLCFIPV
- Measurement description: Time dependent inhibition of CYP2C9 activity in human hepatocytes after 30 mins by liquid chromatography/tandem mass spectroscopy
- Format: ADME, cell-based, Hepatocyte
Assay metric: inhibition at 0.5 h

Give recorded inhibition at 0.5 h with CYP2C9 (Homo sapiens, UniProt P11712) for the following molecule: CC(C)c1cc2c(c(O)c1O)[C@@]1(C(=O)O)CCCC(C)(C)[C@@H]1CC2
< 11%

----------
- Test system: SULT2A1
- Measurement description: Induction of SULT2A1 mRNA expression in human hepatocytes at 10 uM after 48 hrs relative to untreated control
- Format: cell-based, Hepatocyte
- Test context: read-out: FC
Assay metric: fold induction at 48 h, 10 µM
Please give only the number in your answer, with no unit.

Give recorded fold induction at 48 h, 10 µM with SULT2A1 for the following molecule: CC(C)c1cc2c(c(O)c1O)[C@@]1(C(=O)O)CCCC(C)(C)[C@@H]1CC2
2.4
